# system.tested: human ANO6 (Homo sapiens)
# Construct: expressed in transfected cells
# experiment.notes: YFP quenching assay (ANO6 ion channel activity)
# Type: cell-based
# test.parameters: test compound 1 μM, 10 μM ionomycin, read-out: Inhibition Level 1 μM
// reported inhibition at 1 µM per item

The following compounds have reported results that may help.
>  <input.smiles>
O=C(Nc1cccc(F)c1)c1cccc(Nc2ccc(-c3ccc(F)cc3)nn2)c1

>  <recorded.measurement>
≥ 60%

$$$$
>  <input.smiles>
O=C(NC1CC1)c1cccc(Nc2ccc(-c3ccccc3)nn2)c1

>  <recorded.measurement>
≥ 60%

$$$$
>  <input.smiles>
CCCOc1ccc(CNC(=O)c2cccc(Nc3ccc(-c4ccccc4)nn3)c2)cc1

>  <recorded.measurement>
≥ 60%

$$$$
>  <input.smiles>
CCN(CC)CCNC(=O)c1cccc(Nc2ncc(-c3ccccc3)cn2)c1

>  <recorded.measurement>
< 30%

$$$$

[in] Give the reported inhibition at 1 µM for Cc1ccc(CNC(=O)c2cccc(Nc3cnc(-c4cccc(F)c4)cn3)c2)o1 (system: human ANO6 (Homo sapiens)).
[out] ≥ 60%

====

# system.tested: human ANO6 (Homo sapiens)
# Construct: expressed in transfected cells
# experiment.notes: LACT C2 assay (phosphatidylserine scramblase function assay)
# Format: cell-based
# test.parameters: test compound 100 nM, FRT cells expressing human ANO6, 10 μM ionomycin, read-out: Inhibition Level 100 nM
readout: inhibition at 0.1 µM

>  <input.smiles>
O=C(NCCc1ccccc1)c1cccc(Nc2cnc(-c3ccccc3)cn2)c1

>  <inhibition at 0.1 µM>
30 to 60%

$$$$
>  <input.smiles>
Cc1cc(F)ccc1CNC(=O)c1cccc(Nc2ccc(-c3ccccc3)nn2)c1

>  <inhibition at 0.1 µM>
< 30%

$$$$
>  <input.smiles>
N#CC1(NC(=O)c2cccc(Nc3ccc(-c4cccc(F)c4)nn3)c2)CC1

>  <inhibition at 0.1 µM>
< 30%

$$$$
>  <input.smiles>
O=C(NCCc1ccccc1C(=O)O)c1cccc(Nc2ncc(-c3cccc(F)c3)cn2)c1

>  <inhibition at 0.1 µM>
< 30%

$$$$
>  <input.smiles>
O=C(NCCC1=CCCCC1)c1cccc(Nc2ccc(-c3ccccc3)nn2)c1

>  <inhibition at 0.1 µM>
< 30%

$$$$

Consider the additional molecule presented here.
[in] # get_value(readout='inhibition at 0.1 µM', item= O=C(NCc1ccccc1C(F)(F)F)c1cccc(Nc2ncc(-c3cccc(F)c3)cn2)c1 )
[out] < 30%

====

# system.tested: human ANO6 (Homo sapiens, UniProt Q4KMQ2)
# Construct: expressed in transfected cells
# Sequence (Q4KMQ2 1-931 isoform Q4KMQ2-2): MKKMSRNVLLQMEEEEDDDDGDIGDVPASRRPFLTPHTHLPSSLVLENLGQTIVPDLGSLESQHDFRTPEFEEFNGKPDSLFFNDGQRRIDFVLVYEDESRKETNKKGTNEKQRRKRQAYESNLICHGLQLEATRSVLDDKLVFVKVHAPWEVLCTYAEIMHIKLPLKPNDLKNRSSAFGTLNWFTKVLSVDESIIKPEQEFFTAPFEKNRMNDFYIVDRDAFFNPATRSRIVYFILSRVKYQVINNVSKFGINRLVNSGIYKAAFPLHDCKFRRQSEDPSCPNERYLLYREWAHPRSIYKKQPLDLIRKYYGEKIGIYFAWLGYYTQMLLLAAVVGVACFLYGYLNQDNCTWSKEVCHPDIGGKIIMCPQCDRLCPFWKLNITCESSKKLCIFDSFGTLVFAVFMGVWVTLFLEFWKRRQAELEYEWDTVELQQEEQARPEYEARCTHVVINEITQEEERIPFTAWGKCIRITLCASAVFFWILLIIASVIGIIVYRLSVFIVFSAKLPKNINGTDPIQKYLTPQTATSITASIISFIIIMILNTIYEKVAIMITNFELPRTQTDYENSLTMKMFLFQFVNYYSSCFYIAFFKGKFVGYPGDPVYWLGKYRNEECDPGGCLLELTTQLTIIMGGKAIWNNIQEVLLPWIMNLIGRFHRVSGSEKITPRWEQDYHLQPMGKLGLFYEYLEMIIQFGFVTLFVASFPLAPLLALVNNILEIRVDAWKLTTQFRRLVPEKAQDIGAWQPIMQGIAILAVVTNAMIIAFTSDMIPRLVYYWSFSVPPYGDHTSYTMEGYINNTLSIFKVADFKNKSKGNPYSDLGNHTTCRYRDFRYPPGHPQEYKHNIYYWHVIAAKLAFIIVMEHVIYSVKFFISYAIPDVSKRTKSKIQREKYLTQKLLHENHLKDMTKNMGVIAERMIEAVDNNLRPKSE
# experiment.notes: YFP quenching assay (ANO6 ion channel activity)
# Assay type: cell-based
# test.parameters: test compound 1 μM, 10 μM ionomycin, read-out: Inhibition Level 1 μM
readout: inhibition at 1 µM

Recorded inhibition at 1 µM, per entry:
>  <input.smiles>
CC(C)(C)NC(=O)c1cccc(Nc2ccc(-c3ccccc3)nn2)c1

>  <inhibition at 1 µM>
30 to 60%

$$$$
>  <input.smiles>
CCCNC(=O)c1cccc(Nc2ccc(-c3ccccc3)nn2)c1

>  <inhibition at 1 µM>
≥ 60%

$$$$

[in] Request - read-out inhibition at 1 µM | tested on human ANO6 (Homo sapiens, UniProt Q4KMQ2) | compound CC(C)c1ccc(CNC(=O)c2cccc(Nc3ccc(-c4ccccc4)nn3)c2)cc1
[out] ≥ 60%

[in] Hello, I am looking for reported inhibition at 1 µM with human ANO6 (Homo sapiens, UniProt Q4KMQ2) for O=C(NCCc1cccc(F)c1)c1cccc(Nc2ncc(-c3ccccc3)cn2)c1 . Could you help?
[out] ≥ 60%

Data origin: patent US20230080054A1
